Reference source for all entries: ChEMBL document CHEMBL6182948

Test: Metabolic stability in liver microsomes (unknown origin) assessed as compound remaining at 0.5 mg/ml measured after 15 mins in presence of NADPH regenerating system by LC-MS/MS analysis relative to control
Assay type: ADME, Microsome
Details: read-out: Stability
Give measured remaining at 0.25 h for each item. Keep answers brief.
Respond with the figure and its unit, in that order.

Entry N#Cc1ccc(-c2csc(C(=O)Nc3ccc(C(F)(F)F)cc3)n2)cc1 , remaining at 0.25 h reported as 80.4%

Entry O=C(Nc1cc(Cl)cc(Cl)c1)c1nc(-c2cccc(Cl)c2)cs1 — recorded remaining at 0.25 h = 102%

Per the record, N#Cc1ccc(-c2csc(C(=O)Nc3cc(Cl)cc(Cl)c3)n2)cc1 has remaining at 0.25 h of 101%

====

Provide the recorded IC50 for the entries that follow.
Target: Cytochrome P450 1A1 (Homo sapiens, UniProt P04798)
Sequence (P04798 whole entry): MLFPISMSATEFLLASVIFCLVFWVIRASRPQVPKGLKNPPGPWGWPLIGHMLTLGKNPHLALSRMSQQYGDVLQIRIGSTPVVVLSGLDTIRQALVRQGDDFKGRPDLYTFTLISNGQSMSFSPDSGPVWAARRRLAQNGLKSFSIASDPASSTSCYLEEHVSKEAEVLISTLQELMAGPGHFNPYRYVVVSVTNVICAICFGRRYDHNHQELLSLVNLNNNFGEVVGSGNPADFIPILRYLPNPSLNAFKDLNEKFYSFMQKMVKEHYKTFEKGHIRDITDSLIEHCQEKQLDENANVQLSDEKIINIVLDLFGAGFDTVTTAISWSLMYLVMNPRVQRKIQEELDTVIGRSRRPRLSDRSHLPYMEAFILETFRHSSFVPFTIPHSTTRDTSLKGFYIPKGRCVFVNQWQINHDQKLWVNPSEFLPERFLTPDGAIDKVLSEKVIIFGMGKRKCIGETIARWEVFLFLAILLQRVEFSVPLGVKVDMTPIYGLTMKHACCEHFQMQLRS
Assay: Inhibition of human recombinant CYP1A1 using 7-ethoxyresorufin as substrate incubated under dark condition for 15 mins in presence of NADPH by EROD fluorescence assay
Form entry: value (nM) — number only.

Recorded result, NC(=O)c1cccc(-c2csc(C(=O)Nc3ccc(C(F)(F)F)cc3)n2)c1 , IC50: 44.2

Lookup result for N#Cc1cccc(-c2csc(C(=O)Nc3ccc(OC(F)F)cc3)n2)c1 ; measured IC50: 70

Record Cc1sc(C(=O)Nc2cc(Cl)cc(Cl)c2)nc1-c1cccc(Cl)c1 , field IC50: 43.1

The compound listed as COc1cc(NC(=O)c2nc(-c3cccc(F)c3)cs2)cc(OC)c1 shows IC50 equal to 474

// recorded IC50 for N#Cc1ccc(-c2csc(C(=O)Nc3cc(Cl)cc(Cl)c3)n2)cn1 : 72

So for O=C(Nc1ccc(C(F)(F)F)cc1)c1nc(-c2ccc(F)cc2)cs1 , the logged IC50 turned out to be 346

Looking up O=C(Nc1ccc(Cl)cc1Cl)c1nc(-c2cccc(F)c2)cs1 , I found its IC50 recorded as 149

====

Target protein (sequence): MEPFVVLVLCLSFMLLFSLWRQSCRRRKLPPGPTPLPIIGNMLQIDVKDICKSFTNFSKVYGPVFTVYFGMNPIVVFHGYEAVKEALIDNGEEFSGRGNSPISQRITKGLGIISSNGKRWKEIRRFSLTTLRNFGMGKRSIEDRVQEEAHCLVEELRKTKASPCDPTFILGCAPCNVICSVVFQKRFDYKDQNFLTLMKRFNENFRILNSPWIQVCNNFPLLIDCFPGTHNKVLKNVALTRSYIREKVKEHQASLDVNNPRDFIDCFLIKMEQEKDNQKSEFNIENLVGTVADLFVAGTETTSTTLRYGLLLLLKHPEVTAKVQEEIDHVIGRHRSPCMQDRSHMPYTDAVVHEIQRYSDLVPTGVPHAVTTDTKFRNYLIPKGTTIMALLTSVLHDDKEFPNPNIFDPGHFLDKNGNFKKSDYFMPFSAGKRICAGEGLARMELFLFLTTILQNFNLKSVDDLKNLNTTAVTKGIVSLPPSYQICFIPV
recorded.metric: IC50

Record O=C(Nc1cc(Cl)cc(Cl)c1)c1nc(-c2cccc(Cl)c2)cs1 . Reported IC50: > 10 µM

====

Target: Cytochrome P450 1A1 (Homo sapiens)
Assay: Inhibition of human recombinant CYP1A1 using 7-ethoxyresorufin as substrate incubated under dark condition for 15 mins in presence of NADPH by EROD fluorescence assay
Please assign a class to every record based on measured IC50, with ranges bin 0: < 70 nM; bin 1: ≥ 70 nM and < 200 nM; bin 2: ≥ 200 nM

q: Where would Cc1sc(C(=O)Nc2ccc(C(F)(F)F)cc2)nc1-c1cccc(F)c1 land among the classes by reported IC50?
a: bin 1

q: // return the class label for O=C(Nc1cc(Cl)cc(Cl)c1)c1nc(-c2ccc(Br)cc2)cs1
a: bin 2

q: For this compound, which bin applies? Cc1sc(C(=O)Nc2ccc(OC(F)F)cc2)nc1-c1cccc(F)c1
a: bin 1

q: Given O=C(Nc1ccc(I)cc1)c1nc(-c2ccc(F)cc2)cs1 , name the class its IC50 places it in.
a: bin 1

q: In plain terms, what class is COc1ccc(NC(=O)c2nc(-c3ccccc3)cs2)c(OC)c1 ?
a: bin 2

q: Lab log: O=C(Nc1ccc(OC(F)F)cc1)c1nc(-c2ccc(F)cc2)cs1 — assign IC50 category
a: bin 0

q: Form field 'band' for O=C(Nc1cccc(F)c1)c1nc(-c2ccccc2)cs1
a: bin 2

q: Which category fits this record: O=C(Nc1cc(Cl)cc(Cl)c1)c1nc(-c2ccc([N+](=O)[O-])cc2)cs1
a: bin 2

q: Could you tell me which band Cc1ccc(NC(=O)c2nc(-c3ccccc3)cs2)cc1 belongs to?
a: bin 2

q: Tag the class for O=C(Nc1ccc(C(F)(F)F)cc1)c1nc(-c2cccc(Cl)c2)cs1
a: bin 0

====

Target: Cytochrome P450 1A2 (Homo sapiens)
Sequence (P05177 whole entry): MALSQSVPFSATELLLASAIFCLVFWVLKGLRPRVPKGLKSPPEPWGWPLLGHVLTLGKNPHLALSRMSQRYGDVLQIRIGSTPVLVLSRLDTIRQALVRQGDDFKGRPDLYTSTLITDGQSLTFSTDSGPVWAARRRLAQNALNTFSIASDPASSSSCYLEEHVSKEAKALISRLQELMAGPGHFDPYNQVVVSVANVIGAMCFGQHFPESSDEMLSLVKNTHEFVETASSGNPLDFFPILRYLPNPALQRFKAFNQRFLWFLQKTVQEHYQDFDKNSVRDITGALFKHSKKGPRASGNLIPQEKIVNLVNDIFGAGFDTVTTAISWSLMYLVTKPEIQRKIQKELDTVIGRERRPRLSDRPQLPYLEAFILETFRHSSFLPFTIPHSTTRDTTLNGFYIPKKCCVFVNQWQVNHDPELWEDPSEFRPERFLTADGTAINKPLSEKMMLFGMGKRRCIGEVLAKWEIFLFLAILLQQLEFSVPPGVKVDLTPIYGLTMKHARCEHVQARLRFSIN
Assay: Inhibition of human recombinant CYP1A2 using 7-ethoxyresorufin as substrate incubated under dark condition for 45 mins in presence of NADPH by EROD fluorescence assay
Type: ADME
recorded.metric: IC50 (µM)
Supply the numeric figure in µM, leaving out any unit text.

Form: compound = O=C(Nc1cc(Cl)cc(Cl)c1)c1nc(-c2ccc(F)cc2)cs1 ; IC50 = 4.24

Please fill in: IC50 reported for O=C(Nc1cc(Cl)cc(Cl)c1)c1nc(-c2ccc(-c3ccccc3)cc2)cs1 = 12.7

Memo: O=C(Nc1cccc(F)c1)c1nc(-c2ccccc2)cs1 , reported IC50: 0.465

IC50 recorded for this compound, NC(=O)c1ccc(-c2csc(C(=O)Nc3ccc(OC(F)F)cc3)n2)cc1 , is 5.73

For this compound ( O=C(Nc1cc(Cl)cc(Cl)c1)c1nc(-c2ccccc2F)cs1 ), measured IC50 is 0.178

Summary for this compound, O=C(Nc1cc(Cl)cc(Cl)c1)c1nc(-c2ccc(O)cc2)cs1 : IC50 is 40.3

Entry O=C(Nc1cc(Cl)cc(Cl)c1)c1nc(-c2ccc(Br)cc2)cs1 — recorded IC50 = 4.39

Memo: Nc1ccc(-c2csc(C(=O)Nc3cc(Cl)cc(Cl)c3)n2)cc1 , reported IC50: 8.34

====

Test: Cmax in male Sprague-Dawley rat at 10 mg/kg, po measured up to 24 hrs by LC-MS/MS analysis
Assay type: ADME, organism-based
Conditions: in vivo
recorded.metric: Cmax
Please answer using the number first and the unit second.

# Cmax of O=C(Nc1cc(Cl)cc(Cl)c1)c1nc(-c2cccc(Cl)c2)cs1 = 0.081 µg/mL

====

Assay: Metabolic stability in liver microsome (unknown origin) assessed as intrinsic clearance at 0.5 mg/mL measured up to 60 mins by LC-MS/MS analysis
Type: ADME
Settings: human, liver microsomes, read-out: CLH
recorded.metric: CLint scaled (mL/min/kg)
Give just the numeric value; mL/min/kg need not be written.

response.value for O=C(O)Cc1ccccc1Nc1c(Cl)cccc1Cl (field: CLint scaled) = 226

====

Target: Cytochrome P450 1B1 (Homo sapiens, UniProt Q16678)
Sequence (Q16678 whole entry): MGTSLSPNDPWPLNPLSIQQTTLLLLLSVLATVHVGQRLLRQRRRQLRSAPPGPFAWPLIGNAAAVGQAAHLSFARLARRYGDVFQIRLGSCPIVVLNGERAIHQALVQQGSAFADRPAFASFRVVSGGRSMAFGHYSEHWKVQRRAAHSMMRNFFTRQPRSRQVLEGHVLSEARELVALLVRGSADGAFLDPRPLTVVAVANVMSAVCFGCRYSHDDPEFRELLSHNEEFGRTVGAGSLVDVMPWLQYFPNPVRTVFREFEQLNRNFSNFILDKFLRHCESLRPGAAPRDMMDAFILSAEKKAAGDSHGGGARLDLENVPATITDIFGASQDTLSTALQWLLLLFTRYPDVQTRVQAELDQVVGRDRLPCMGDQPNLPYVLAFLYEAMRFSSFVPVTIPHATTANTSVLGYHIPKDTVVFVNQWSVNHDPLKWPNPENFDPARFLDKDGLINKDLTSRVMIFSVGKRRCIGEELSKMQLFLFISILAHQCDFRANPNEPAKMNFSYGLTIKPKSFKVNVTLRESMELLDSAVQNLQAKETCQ
Assay: Inhibition of human recombinant CYP1B1 using 7-ethoxyresorufin as substrate incubated under dark condition for 30 mins in presence of NADPH by EROD fluorescence assay
For each entry below, report its IC50 value.
Write down the value, and be sure its unit follows.

GET /value?item= O=C(Nc1ccc(OC(F)(F)F)cc1)c1nc(-c2ccccc2)cs1 &field=IC50 returns 7.45 nM

According to the records, this compound Cc1sc(C(=O)Nc2ccc(C(F)(F)F)cc2)nc1-c1cccc(F)c1 displays IC50 of 2.12 nM

// Nc1ccc(-c2csc(C(=O)Nc3cc(Cl)cc(Cl)c3)n2)cc1 : IC50 value = 142 nM

Data point: N#Cc1ccc(-c2csc(C(=O)Nc3ccc(OC(F)F)cc3)n2)cc1 ; IC50 = 0.99 nM

// IC50 lookup, compound = O=C(Nc1ccc(C(F)(F)F)cc1)c1nc(-c2ccc(Cl)cc2)cs1 , result: 0.49 nM

Sample O=C(Nc1ccc(C(F)(F)F)cc1)c1nc(-c2ccccc2)cs1 ; IC50 observed: 0.47 nM

Memo: COc1ccc(NC(=O)c2nc(-c3ccccc3)cs2)c(OC)c1 , reported IC50: 25.2 nM

Reported IC50 of O=C(Nc1ccc(Cl)cc1)c1nc(-c2ccccc2)cs1 : 1.18 nM

Lookup result for Cc1sc(C(=O)Nc2ccc(C(F)(F)F)cc2)nc1-c1cccc(Cl)c1 ; measured IC50: 1.88 nM

The compound NC(=O)c1cccc(-c2csc(C(=O)Nc3cc(Cl)cc(Cl)c3)n2)c1 showed IC50 equal to 11.6 nM

Documented IC50 of O=C(Nc1ccc(I)cc1)c1nc(-c2cccc(F)c2)cs1 : 1.44 nM
